Cited source: patent US20250109140A1

test system: SMN2 mRNA; experiment: Splicing RT-qPCR gene panel, SMN2 canonical junction (CJ) mRNA; type: cell-based; details: Homo sapiens; Table 8; larger gene panel, decrease in CJ mRNA levels
pIC50: −log10 of the molar value.
readout label: pIC50

Some solved cases for reference:
>>> observed("Cc1nc2c(F)cc(-n3cc4sc(C5CCNCC5)cc4n3)cc2o1 [Compound 167]")
"6.00 to 7.00"
>>> observed("Cc1cn2cc(-n3cc4cc(C5CCNCC5)sc4n3)nc2c(C)n1 [Compound 227]")
"6.00 to 7.00"
>>> observed("Cn1cc2cc(-c3nc4sc(N5CCNCC5)c(Cl)c4s3)cc(F)c2n1 [Compound 147]")
"> 7.00"

// batch mode: one pIC50 value per listed entry
1. Cn1cc2cc(-c3nc4sc(N5CCNC6(CC6)C5)cc4s3)cc(F)c2n1 [Compound 136]
2. C[C@@H]1C[C@@H](c2cc3sc(-c4cc(F)c5nn(C)cc5c4)nc3s2)CCN1 (single isomer, unassigned) [Compound 193]

Reply:
["6.00 to 7.00", "> 7.00"]

---

Kindly state IC50 for each of the entries shown.
tested on: K562 (human chronic myelogenous leukemia) cells; assay: Cell viability, Cell Titer Glo 2.0 assay, K562 cells; format: cell-based; conditions: 72 hours

Example cases with answers are listed next.
>>> observed("Cn1cc2cc(-c3cc4cn(C5=CCOCC5)nc4s3)cc(F)c2n1")
"> 10 µM"
>>> observed("Cc1cn2nc(-n3cc4sc(N5CC6(CN(C)C6)C5)cc4n3)cc(C)c2n1")
"1 to 10 µM"

For every item in the list below, what is its measured IC50?
1. Cn1cc2cc(-n3cc4nc(C5CCNCC5)sc4n3)cc(F)c2n1
2. Cc1nc2c(F)cc(-n3cc4cc(C5CCNCC5)sc4n3)cc2o1

Reply:
1. > 10 µM
2. 0.1 to 1 µM

Items follow; give IC50 for each.
1. Cc1cn2nc(-n3cc4sc(N5CCC(NC(C)(C)C)C5)cc4n3)cc(C)c2n1 (centres unmarked)
2. COc1c(-c2nc3cn(C4CCNCC4)nc3s2)cc2cn(C)nc2c1C
3. Cc1cn2nc(-c3cc4cn(C5CCNCC5)nc4s3)cc2c(C)n1
4. Cn1cc2cc(-c3cc4cn([C@@H]5CCNC[C@H]5F)nc4s3)cc(F)c2n1

Reply:
1: 1 to 10 µM; 2: 1 to 10 µM; 3: 1 to 10 µM; 4: 1 to 10 µM

---

system: HTT mRNA; test: Splicing RT-qPCR assay, HTT canonical (CJ) and alternative (AJ) junction mRNA; type: cell-based; conditions: Homo sapiens; Table 7; AC50 = 50% response in AJ mRNA increase; RT-qPCR, A673 or K562 cells, 24 hours treatment
Kindly supply the reported EC50 values for the records listed here.

Record excerpt, results attached:
>>> observed("CN1CCN(c2cc3sc(-c4cc(F)c5nn(C)cc5c4)nc3s2)CC1")
"100 to 1000 nM"
>>> observed("Cc1cn2cc(-n3cc4cc(C5CCNCC5)sc4n3)cc(C)c2n1")
"100 to 1000 nM"
>>> observed("Cc1cn2cc(-n3cc4cc(C5CCNCC5)sc4n3)nc2c(C)n1")
"1000 to 10000 nM"

Could I get EC50 for every one of these entries?
1. Cc1cn2nc(-n3cc4cc(C5CCNCC5)sc4n3)cc2c(C)n1
2. Cc1nc2c(F)cc(-n3cc4sc(C5CCNCC5)cc4n3)cc2s1
3. CN1CCC2(CC1)CCN2c1cc2sc(-c3cc(F)c4nn(C)cc4c3)nc2s1
4. Cn1cc2cc(-c3nc4sc(N5CCNC6(CC6)C5)cc4s3)cc(F)c2n1
5. Cn1cc2cc(-c3nc4sc(C5CCNCC5)cc4s3)cc(F)c2n1

Reply:
1: 1000 to 10000 nM; 2: 1000 to 10000 nM; 3: 1000 to 10000 nM; 4: > 10000 nM; 5: < 100 nM
